FYI, the data here is from ChEMBL document CHEMBL5050844.

- protocol.details: Induction of anti-CD3 antibodies-stimulated human T cell activation at 8 uM assessed fold increase in CD25 expression measured by ELISA assay; further: reference of the scale not given here
- Format: functional, T cell line
endpoint: fold change (FC)

>>> reported_measurement("C[C@H](Cc1nocc1C(F)(F)F)c1cccc(N2Cc3c(cc(C(=O)N4CC[C@H](F)C4)cc3C(F)(F)F)C2=O)c1")
">=1.001"
>>> reported_measurement("Cn1cnnc1C(F)(F)[C@](C)(F)c1cccc(N2Cc3c(cc(CN4CC[C@H](C#N)C4)cc3C(F)(F)F)C2=O)c1")
">=1.001"
>>> reported_measurement("COc1nc(C(=O)Nc2cccc([C@H](C)Sc3nncn3C)c2)cc2ccccc12")
0.801
>>> reported_measurement("Cc1ccc(C(=O)Nc2cccc([C@H](C)Cc3nnc[nH]3)c2)nc1C1CC1")
"<=0.6"

---

- protocol.details: Induction of anti-CD3 antibodies-stimulated human T cell activation at 1 uM assessed fold increase in IL-2 secretion measured by ELISA assay; further: reference of the scale not given here
- Format: functional, T cell line
endpoint: fold change (FC)

>>> reported_measurement("Cn1cnnc1-c1cnn(C)c1-c1cccc(N2Cc3c(cccc3C(F)(F)F)C2=O)c1")
0.051
>>> reported_measurement("C[C@H](Cc1nncn1C)c1cccc(NC(=O)c2cc3cccn3cn2)c1")
0.051
>>> reported_measurement("Cn1cnnc1CC1(c2cccc(N3Cc4c(cc(CN5CCC(C)(C#N)CC5)cc4C(F)(F)F)C3=O)c2)COC1")
0.151
>>> reported_measurement("Cn1cnnc1C(F)(F)[C@](C)(F)c1cccc(N2Cc3c(cc(C(=O)N4CC(C(F)F)C4)cc3C(F)(F)F)C2=O)c1")
0.051
>>> reported_measurement("CN1CCN(c2cc3c(c(C(F)(F)F)c2)CN(c2cccc([C@@](C)(F)C(F)(F)c4nncn4C)c2)C3=O)CC1")
0.051
>>> reported_measurement("Cc1cc(C(=O)Nc2cccc([C@H](C)Cc3nncs3)c2)nc(C2CC2)n1")
0.101

---

- protocol.details: Induction of activation of human CD56+ CD3- NK cells co-cultured with human K562 cells in 1:1 ratio and assessed as increase in MIP1beta secretion at 10 uM measured by ELISA assay
- Assay type: functional, Natural killer cell
Overview of reported fold change (FC) across a group of compounds:
endpoint: fold change (FC)

>>> reported_measurement("C[C@H](Cc1nncn1C)c1cccc(NC(=O)c2cc(C3CC3)cc(C(F)(F)F)n2)c1")
1.01
>>> reported_measurement("C[C@H](Cc1nncn1C)c1cccc(N2Cc3c(cccc3C(F)(F)F)C2=O)c1.Cl")
1.01
>>> reported_measurement("Cc1cc(C(=O)Nc2cccc([C@H](C)Cc3nncn3C)c2)nc(C2CC2)n1")
2.01
>>> reported_measurement("C[C@H](Sc1nncn1C)c1cccc(NC(=O)c2cccc(C(F)(F)F)n2)c1")
1.01

---

- protocol.details: Induction of anti-CD3/CD28 antibodies-stimulated human T cell activation at 1 uM assessed fold increase in CD25 expression measured by ELISA assay
- Assay type: functional, T cell line
Overview of reported fold change (FC) across a group of compounds:
endpoint: fold change (FC)

>>> reported_measurement("Cn1cnnc1CC1(c2cccc(N3Cc4c(cc(N5CCOCC5)cc4C(F)(F)F)C3=O)c2)COC1")
1.51
>>> reported_measurement("CC(c1cc2c(c(C(F)(F)F)c1)CN(c1cccc([C@H]3C[C@H]3c3nncn3C)c1)C2=O)N1CC[C@H](F)C1 (stereo partly drawn)")
1.51
>>> reported_measurement("CCOc1cc([C@H](C)Cc2nncn2C)cc(N2Cc3c(cccc3C(F)(F)F)C2=O)n1")
1.31
>>> reported_measurement("Cc1n[nH]c(C)c1-c1cc2c(c(C(F)(F)F)c1)CN(c1cccc([C@H](C)Cc3nncn3C)c1)C2=O")
1.51
>>> reported_measurement("Cn1cnnc1CC1(c2cccc(NC(=O)c3[nH]nc4c3OCCC4)c2)COC1")
1.01
>>> reported_measurement("C[C@@H](c1cc2c(c(C(F)(F)F)c1)CN(c1cccc(C3(Cc4nncn4C)COC3)c1)C2=O)N1CC[C@H](F)C1")
1.51
>>> reported_measurement("C[C@H]1CN(Cc2cc3c(c(C(F)(F)F)c2)CN(c2cccc(C4(Cc5nncn5C)COC4)c2)C3=O)CCO1")
1.31

---

Overview of reported fold change (FC) across a group of molecules:
- protocol.details: Induction of anti-CD3/CD28 antibodies-stimulated human T cell activation at 1 uM assessed fold increase in IL-2 secretion measured by ELISA assay
- Type: functional, T cell line
endpoint: fold change (FC)

>>> reported_measurement("C[C@H](Sc1nncn1C)c1cccc(NC(=O)c2cc(Cl)cc(C(F)(F)F)n2)c1")
1.01
>>> reported_measurement("CC(c1cc2c(c(C3CC3)n1)CN(c1cccc(C3(Cc4nncn4C)COC3)c1)C2=O)N1CCC2(CC2)C1 (centres undefined)")
5
>>> reported_measurement("C[C@H](Sc1nnc[nH]1)c1cccc(NC(=O)c2cc3ccccc3cn2)c1")
1.01
>>> reported_measurement("Cn1cnnc1CC1(c2cccc(N3Cc4c(cc(CN5CC(C#N)C5)cc4C(F)(F)F)C3=O)c2)COC1")
5
>>> reported_measurement("C[C@H](Cc1nncn1C)c1cccc(NC(=O)c2ccnc(C3CC3)n2)c1")
5
>>> reported_measurement("CC(C)Nc1cc([C@H](C)Cc2nncn2C)cc(N2Cc3c(cccc3C(F)(F)F)C2=O)n1")
2.51

---

Overview of reported IC50 across a group of compounds:
- assayed.target: UniProt:Q13191
- Sequence (Q13191 whole entry, the tested form may be a part): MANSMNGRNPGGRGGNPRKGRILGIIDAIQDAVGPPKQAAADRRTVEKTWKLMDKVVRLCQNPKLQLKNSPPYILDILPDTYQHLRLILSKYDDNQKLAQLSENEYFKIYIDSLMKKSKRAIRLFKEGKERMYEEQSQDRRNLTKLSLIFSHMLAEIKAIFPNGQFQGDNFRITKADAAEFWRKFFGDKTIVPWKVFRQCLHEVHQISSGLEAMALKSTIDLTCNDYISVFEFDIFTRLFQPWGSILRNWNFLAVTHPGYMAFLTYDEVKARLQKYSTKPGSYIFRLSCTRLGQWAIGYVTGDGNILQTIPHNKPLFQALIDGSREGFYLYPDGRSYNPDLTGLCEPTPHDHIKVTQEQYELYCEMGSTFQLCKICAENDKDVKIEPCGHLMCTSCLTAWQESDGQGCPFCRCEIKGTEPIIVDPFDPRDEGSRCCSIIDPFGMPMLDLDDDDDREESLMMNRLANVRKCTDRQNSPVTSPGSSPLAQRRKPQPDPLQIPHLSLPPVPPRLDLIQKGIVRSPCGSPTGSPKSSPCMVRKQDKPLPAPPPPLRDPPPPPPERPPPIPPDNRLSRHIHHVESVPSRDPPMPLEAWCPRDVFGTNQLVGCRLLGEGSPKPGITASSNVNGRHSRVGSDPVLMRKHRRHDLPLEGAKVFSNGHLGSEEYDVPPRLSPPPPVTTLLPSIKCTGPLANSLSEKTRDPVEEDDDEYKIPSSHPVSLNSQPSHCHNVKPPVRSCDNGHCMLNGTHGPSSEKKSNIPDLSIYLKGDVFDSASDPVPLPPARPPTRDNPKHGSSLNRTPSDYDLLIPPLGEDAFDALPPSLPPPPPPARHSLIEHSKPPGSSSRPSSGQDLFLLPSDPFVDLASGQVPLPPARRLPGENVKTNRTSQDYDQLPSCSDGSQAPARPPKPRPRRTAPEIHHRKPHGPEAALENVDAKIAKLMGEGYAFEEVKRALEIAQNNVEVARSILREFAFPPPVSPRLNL
- protocol.details: Inhibition of N-terminal Avi-tagged human CBL-B (36 to 427 residues) incubated with 60 nM Src kinase for 1.5 hrs followed by incubation with fluorescently labeled UbcH5B-Ub for 1 hr and measured by TR-FRET assay
- Format: single protein
endpoint: IC50

>>> reported_measurement("CNc1cc([C@H](C)Cc2nncn2C)cc(N2Cc3c(cccc3C(F)(F)F)C2=O)n1")
"< 100 nM"
>>> reported_measurement("Cn1cnnc1CC1(c2cccc(NC(=O)c3cc(C4CC4)nc4ccnn34)c2)COC1")
"< 100 nM"
>>> reported_measurement("Cn1cnnc1CC1(c2cccc(N3Cc4c(cc(OC5CNC5)cc4C(F)(F)F)C3=O)c2)COC1")
"< 100 nM"
>>> reported_measurement("C[C@@H]1CCN(Cc2cc3c(c(C(F)(F)F)c2)CN(c2cccc(C4(Cc5nncn5C)COC4)c2)C3=O)C[C@H]1F (relative stereo)")
"< 100 nM"
>>> reported_measurement("C[C@H](c1cc2c(c(C(F)(F)F)c1)CN(c1cccc(C3([C@H](F)c4nncn4C)COC3)c1)C2=O)N1CCC2(CC2)C1 (single isomer, unassigned)")
"< 100 nM"
>>> reported_measurement("Cn1cnnc1CC1(c2cccc(N3Cc4c(cc(CN5CC6C(C5)C6(F)F)cc4C(F)(F)F)C3=O)c2)COC1 (configuration not stated)")
"< 100 nM"
>>> reported_measurement("CCN1CCN(Cc2cc3c(c(C(F)(F)F)c2)CN(c2cccc(C4(Cc5nncn5C)COC4)c2)C3=O)CC1")
"< 100 nM"
>>> reported_measurement("Cn1cnnc1CC1(c2cccc(N3Cc4c(cccc4C(F)(F)F)C3=O)c2)COC1")
"< 100 nM"
>>> reported_measurement("Cn1cnnc1CC1(c2cccc(N3Cc4c(cc(CN5Cc6ccc(F)cc6C5)cc4C(F)(F)F)C3=O)c2)COC1")
"< 100 nM"
>>> reported_measurement("Cn1cnnc1CC1(c2cccc(N3Cc4c(cc(CN5CCC(C#N)CC5)cc4C(F)(F)F)C3=O)c2)COC1")
"< 100 nM"
>>> reported_measurement("C[C@H](c1cc2c(c(C(F)(F)F)c1)CN(c1cccc(C3(Cc4nncn4C)COC3)c1)C2=O)N1CC[C@H](F)C1")
"< 100 nM"
>>> reported_measurement("C[C@H](Cc1nncn1C)c1cccc(N2Cc3c(cc(CN4CC[C@H](F)C4)cc3C(F)(F)F)C2=O)c1")
"< 100 nM"
>>> reported_measurement("Cn1cnnc1CC1(c2cccc(N3Cc4c(cc(CN5C[C@H]6C[C@H]6C5)cc4C(F)(F)F)C3=O)c2)COC1")
"< 100 nM"
>>> reported_measurement("C[C@H](Cc1nncn1C)c1cccc(N2Cc3c(cc(CN4CC(F)(F)C4)cc3C(F)(F)F)C2=O)c1")
"< 100 nM"
>>> reported_measurement("Cn1cnnc1C(F)(F)[C@](C)(F)c1cccc(N2Cc3c(cc(CN4CCC(F)(F)C4)cc3C(F)(F)F)C2=O)c1")
"< 100 nM"
>>> reported_measurement("C[C@H](Cc1nncn1C)c1cccc(N2Cc3c(cc(C(=O)N4C[C@@H](O)C[C@H]4C)cc3C(F)(F)F)C2=O)c1.O=C(O)C(F)(F)F")
"< 100 nM"
>>> reported_measurement("C[C@H](Sc1nncn1C)c1cccc(NC(=O)c2ccc(C#N)c(C3CC3)n2)c1")
"< 100 nM"
>>> reported_measurement("Cn1cnnc1CC1(c2cccc(N3Cc4c(cc(CC5CNCCC5=O)cc4C(F)(F)F)C3=O)c2)COC1 (configuration not stated)")
"< 100 nM"
>>> reported_measurement("Cn1cnnc1CC1(c2cccc(N3Cc4c(cc(CN5CC[C@@H](F)[C@@H](F)C5)cc4C(F)(F)F)C3=O)c2)COC1 (relative stereo)")
"< 100 nM"
>>> reported_measurement("C[C@H](Cc1nncn1C)c1cccc(N2Cc3c(cc(CN4CC[C@@H](F)C4)cc3C(F)(F)F)C2=O)c1")
"< 100 nM"
>>> reported_measurement("Cc1conc1C[C@@H](C)c1cccc(N2Cc3c(cc(C(=O)N4CC[C@H](O)C4)cc3C(F)(F)F)C2=O)c1")
"< 100 nM"
>>> reported_measurement("C[C@H](Cc1nncn1C)c1cccc(N2Cc3c(cc(CN4CC(C)(O)C4)cc3C(F)(F)F)C2=O)c1")
"< 100 nM"
>>> reported_measurement("C[C@@H](c1cc2c(c(C(F)(F)F)c1)CN(c1cccc(C3(Cc4nncn4C)COC3)c1)C2=O)N1CC(C)(F)C1")
"< 100 nM"
>>> reported_measurement("Cn1cnnc1CC1(c2cccc(N3Cc4c(cc(C5=CCCOC5)cc4C(F)(F)F)C3=O)c2)COC1")
"< 100 nM"
>>> reported_measurement("C[C@H](c1cc2c(c(C(F)(F)F)c1)CN(c1cccc(C3(Cc4nncn4C)COC3)c1)C2=O)N1CC(F)C1")
"< 100 nM"
>>> reported_measurement("Cn1cnnc1CC1(c2cccc(N3Cc4c(cc(N5CC(C(F)F)C5)cc4C(F)(F)F)C3=O)c2)COC1")
"< 100 nM"
>>> reported_measurement("Cn1cnnc1CC1(c2cccc(NC(=O)c3cc(C4CC4)nc(C(F)(F)F)n3)c2)COC1")
"< 100 nM"
>>> reported_measurement("CN1CCN(c2cc3c(c(C(F)(F)F)c2)CN(c2cccc(C4(Cc5nncn5C)COC4)c2)C3=O)CC12CC2")
"< 100 nM"
>>> reported_measurement("Cn1cnnc1CC1(c2cccc(N3Cc4c(cc(CN5Cc6cccc(Cl)c6C5)cc4C(F)(F)F)C3=O)c2)COC1")
"< 100 nM"
>>> reported_measurement("Cn1cnnc1CC1(c2cccc(NC(=O)c3cc(CN4CCC5(CC5)C4)cc(C4CC4)n3)c2)COC1")
"< 100 nM"
>>> reported_measurement("Cn1cnnc1CC1(c2cccc(N3Cc4c(cc(C5CC5)nc4C4CC4)C3=O)c2)COC1")
"< 100 nM"
>>> reported_measurement("C[C@H](c1cc2c(c(C(F)(F)F)c1)CN(c1cccc(C3(Cc4nncn4C)COC3)c1)C2=O)N1CC2CC2C1 (some centres not stated)")
"< 100 nM"
